# Assay Summary: soluble fraction after stress (log2 fold change); higher = more stays soluble; pooled small domains, quantitative proteomics;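 note: 20 min heating vs room temperature control held 20 min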
# Test Settings: stress: 75 degC

Residues | soluble fraction (log2)
HMTNYNTEKIIPEEQAGKRLDVVLANIFPEFSRSRLKNWIIDGFILVDGKVLRPRDFVTGGELVSIDVIV | -0.123
HMNHSITLTERKNLLITGVKKIENFDKEEFLIETTMGFLVVKGDGLELIKLDTISGNVSIKGIVNGFTYID | 0.15
HMTVGEAHLEEVYLKVLKQVEEQGTALIRTTDVETGRPAAGIRRRYMRGTLPDEWVAKFEALPGWTWAPG | -3.04
HMYESAMSDLHARIMSSDDPHGEIYKMLTQSGPEAKYIQDMYNETSIDRGLHPDDDFEDIIDAMVAELDD | -0.68

Source: the domain aggregation screens of Martell et al. (2025)
